Tested on: soybean having the Als2 mutation
Assay remarks: Greenhouse postemergence test of ALS-inhibiting herbicides, soybean with Als2 mutation
Assay type: in vivo
Measurement conditions: 17.5 g ai/ha postemergence at V2, scored 14 days after application
Description: Soybean lines having wild type als1 & 2 genes, the Als1 mutation, the Als2 mutation, or both the Als1 and Als2 mutations were evaluated for their response to various herbicides. […] The test was evaluated by visually scoring plant phenotype 14 days after the herbicides were applied. […] Soybean response was recorded on a zero to 100 visual scale in which zero is no phytotoxic response and 100 is plant death fourteen days after the herbicides were applied. […]
Entries and their measured Soybean response (percent phytotoxicity), Als2 follow.
Please answer using a numeric value trailed by its unit.

Some solved cases for reference:
Compound: COc1nc(C)nc(NC(=O)NS(=O)(=O)c2ccsc2C(=O)O)n1 [Thifensulfuron]
Experimental target: soybean having the Als2 mutation
Value: 0%
//
Compound: COc1cc(Cl)nc(NC(=O)NS(=O)(=O)c2ccccc2C(=O)O)n1 [Chlorimuron]
Experimental target: soybean having the Als2 mutation
Value: 0%
//
Compound: CC(C)C1(C)N=C(c2ncccc2C(=O)O)NC1=O (stereo not drawn) [Imazapyr]
Experimental target: soybean having the Als2 mutation
Value: 20%
//
Compound: COc1nc(C)nc(N(C)C(=O)NS(=O)(=O)c2ccccc2C(=O)O)n1 [Tribenuron]
Experimental target: soybean having the Als2 mutation
Value: 40%

So what's the measured Soybean response (percent phytotoxicity), Als2 for this one? Cc1cc(C)nc(NC(=O)NS(=O)(=O)c2ccccc2C(=O)O)n1 [Sulfometuron]
70%

So what's the measured Soybean response (percent phytotoxicity), Als2 for this one? CCS(=O)(=O)c1cccnc1S(=O)(=O)NC(=O)Nc1nc(OC)cc(OC)n1 [Rimsulfuron]
0%

So what's the measured Soybean response (percent phytotoxicity), Als2 for this one? COc1nn(C(=O)NS(=O)(=O)c2ccccc2OC(F)(F)F)c(=O)n1C [Flucarbazone]
5%

So what's the measured Soybean response (percent phytotoxicity), Als2 for this one? CCOc1nc(F)cc2nc(S(=O)(=O)Nc3c(Cl)cccc3C(=O)OC)nn12 [Cloransulam methyl]
0%

So what's the measured Soybean response (percent phytotoxicity), Als2 for this one? COc1cc(OC)nc(NC(=O)NS(=O)(=O)c2ncccc2C(=O)N(C)C)n1 [Nicosulfuron]
0%
